# target or system: human CD33 P55A (human, UniProt P20138 18-364)
# Sequence (P20138 18-364 P55A limits assumed): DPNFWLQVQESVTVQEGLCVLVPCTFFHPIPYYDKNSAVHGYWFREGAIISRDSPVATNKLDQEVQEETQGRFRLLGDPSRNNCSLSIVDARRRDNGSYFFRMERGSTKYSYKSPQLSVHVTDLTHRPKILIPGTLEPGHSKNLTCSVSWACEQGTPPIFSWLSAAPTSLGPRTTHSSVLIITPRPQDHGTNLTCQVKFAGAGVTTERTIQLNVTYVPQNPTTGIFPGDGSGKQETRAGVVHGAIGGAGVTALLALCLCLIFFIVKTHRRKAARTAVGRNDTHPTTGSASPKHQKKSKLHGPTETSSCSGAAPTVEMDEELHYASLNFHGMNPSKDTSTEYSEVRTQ
# assay name: alanine scan, flow cytometry;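 note: HEK293-T cells transiently expressing single-residue alanine mutants of CD33 (alanine swapped to serine), antibody binding read by fluorescence in duplicate, background-subtracted, expressed relative to wild-type CD33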
endpoint: Mean % WT Binding (% WT)

{"binder": "Refmab #2 (antibody, V domains shown, Full-length format is human IgG1 Fc silent (PG-LALA); The alanine scan used IgG or Fab) VH: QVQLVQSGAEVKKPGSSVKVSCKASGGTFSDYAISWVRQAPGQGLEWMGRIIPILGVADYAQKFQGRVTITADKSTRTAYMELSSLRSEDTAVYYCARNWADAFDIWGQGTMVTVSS VL: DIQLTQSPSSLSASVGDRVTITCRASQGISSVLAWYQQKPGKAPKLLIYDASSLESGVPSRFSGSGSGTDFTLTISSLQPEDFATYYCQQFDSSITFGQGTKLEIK", "value measured": 120}
